target: Human Recombinant Gelatinase B (MMP-9) (Homo sapiens); construct: made in house; host or cells: baculovirus protein expression system; experiment: P218 quenched fluorescence assay for MMP inhibition: MMP-9; assay type: biochemical; details: P218 substrate 6 μM, pH 6.5, 25 min at 37° C.; read-out: MMP-9 Fluorogenic IC-50
Sequence (P14780 107-707 limits assumed): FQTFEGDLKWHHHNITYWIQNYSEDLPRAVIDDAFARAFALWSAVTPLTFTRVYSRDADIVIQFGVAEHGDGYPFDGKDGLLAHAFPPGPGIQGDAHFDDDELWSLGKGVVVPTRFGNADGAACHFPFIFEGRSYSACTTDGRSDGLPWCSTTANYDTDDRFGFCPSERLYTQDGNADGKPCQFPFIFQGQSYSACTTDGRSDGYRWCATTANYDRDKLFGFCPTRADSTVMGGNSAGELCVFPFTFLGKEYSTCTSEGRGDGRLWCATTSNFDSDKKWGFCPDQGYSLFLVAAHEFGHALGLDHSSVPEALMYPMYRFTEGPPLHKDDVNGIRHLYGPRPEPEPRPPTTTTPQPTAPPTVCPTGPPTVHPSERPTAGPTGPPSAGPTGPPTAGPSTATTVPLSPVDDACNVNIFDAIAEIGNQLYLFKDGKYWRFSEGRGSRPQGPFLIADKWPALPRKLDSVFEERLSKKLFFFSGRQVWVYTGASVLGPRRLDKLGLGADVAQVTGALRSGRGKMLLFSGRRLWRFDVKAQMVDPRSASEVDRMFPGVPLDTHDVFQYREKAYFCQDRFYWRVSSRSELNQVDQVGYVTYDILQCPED
For each record, write down the corresponding pIC50.
Entry type: numeric. Quantity: pIC50, the -log10 of concentration in molar units.

Ask: What does the record list as pIC50 for O=C(CC(CCCc1ccccc1)C(=O)O)c1ccc(-c2ccc(C#CCCO)cc2)cc1 (centres unmarked) ?
Reply: 6.91

Ask: What does the record list as pIC50 for O=C(CC(CCCc1ccccc1)C(=O)O)c1ccc(-c2ccc(C#CCCCCO)cc2)cc1 (centres unmarked) ?
Reply: 6.21

Ask: What does the record list as pIC50 for O=C(CC(CCN1C(=O)c2ccccc2C1=O)C(=O)O)c1ccc(-c2ccc(C#CCOCc3ccccc3)cc2)cc1 (centres unmarked) ?
Reply: 7.40

Ask: What does the record list as pIC50 for O=C(C[C@@H](CCCc1ccccc1)C(=O)O)c1ccc(-c2ccc(C#CCO)cc2)cc1 ?
Reply: 7.43

Ask: What does the record list as pIC50 for CCOC(=O)OCC#Cc1ccc(-c2ccc(C(=O)CC(CCCc3ccccc3)C(=O)O)cc2)cc1 (centres unmarked) ?
Reply: 5.61

Ask: What does the record list as pIC50 for CCCN(CC#Cc1ccc(-c2ccc(C(=O)CC(CCCc3ccccc3)C(=O)O)cc2)cc1)CCC (centres unmarked) ?
Reply: 5.58

Ask: What does the record list as pIC50 for O=C(CC(CCN1C(=O)c2ccccc2C1=O)C(=O)O)c1ccc(-c2ccc(C#CCO)cc2)cc1 (centres unmarked) ?
Reply: 8.70

Ask: What does the record list as pIC50 for O=C(CC(CCCc1ccccc1)C(=O)O)c1ccc(-c2ccc(C#CCO)cc2)cc1 (racemic) ?
Reply: 6.97

Ask: What does the record list as pIC50 for CC(=O)OCC#Cc1ccc(-c2ccc(C(=O)CC(CCCc3ccccc3)C(=O)O)cc2)cc1 (centres unmarked) ?
Reply: 6.08

Ask: What does the record list as pIC50 for CC(=O)OCCC#Cc1ccc(-c2ccc(C(=O)CC(CCCc3ccccc3)C(=O)O)cc2)cc1 (centres unmarked) ?
Reply: 6.27

Ask: What does the record list as pIC50 for COCC#Cc1ccc(-c2ccc(C(=O)CC(CCCc3ccccc3)C(=O)O)cc2)cc1 (centres unmarked) ?
Reply: 6.15

###

biological target: Human Recombinant Gelatinase A (MMP-2) (Homo sapiens, UniProt P08253); assay: P218 quenched fluorescence assay for MMP inhibition: MMP-2; type: biochemical; conditions: P218 substrate 6 μM, pH 6.5, 25 min at 37° C.; read-out: MMP-2 Fluorogenic IC-50
Sequence (P08253 110-660): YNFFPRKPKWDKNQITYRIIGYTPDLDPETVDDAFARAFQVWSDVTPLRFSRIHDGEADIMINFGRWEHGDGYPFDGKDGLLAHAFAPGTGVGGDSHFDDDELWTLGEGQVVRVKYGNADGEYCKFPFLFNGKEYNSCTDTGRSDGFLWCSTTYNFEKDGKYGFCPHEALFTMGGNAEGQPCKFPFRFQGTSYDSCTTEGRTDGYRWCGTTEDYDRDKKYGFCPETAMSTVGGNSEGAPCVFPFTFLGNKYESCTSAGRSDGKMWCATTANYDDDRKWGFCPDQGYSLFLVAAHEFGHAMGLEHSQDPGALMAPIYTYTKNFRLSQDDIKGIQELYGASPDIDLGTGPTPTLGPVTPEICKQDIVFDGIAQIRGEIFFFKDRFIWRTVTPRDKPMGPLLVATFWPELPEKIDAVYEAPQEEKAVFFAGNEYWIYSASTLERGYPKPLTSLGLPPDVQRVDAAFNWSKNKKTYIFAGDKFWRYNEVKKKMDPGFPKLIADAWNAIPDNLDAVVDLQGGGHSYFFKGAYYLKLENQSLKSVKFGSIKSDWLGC
property_measured: pIC50
Entry type: numeric. Quantity: pIC50, the -log10 of concentration in molar units.

Ask: What pIC50 appears in the records for this compound with Human Recombinant Gelatinase A (MMP-2) (Homo sapiens, UniProt P08253)? O=CCCCC#Cc1ccc(-c2ccc(C(=O)CC(CCCc3ccccc3)C(=O)O)cc2)cc1 (centres unmarked)
Reply: 6.22

Ask: What pIC50 appears in the records for this compound with Human Recombinant Gelatinase A (MMP-2) (Homo sapiens, UniProt P08253)? O=C(CC(CCCc1ccccc1)C(=O)O)c1ccc(-c2ccc(C#CCCO)cc2)cc1 (centres unmarked)
Reply: 8.22

Ask: What pIC50 appears in the records for this compound with Human Recombinant Gelatinase A (MMP-2) (Homo sapiens, UniProt P08253)? COCC#Cc1ccc(-c2ccc(C(=O)CC(CCCc3ccccc3)C(=O)O)cc2)cc1 (centres unmarked)
Reply: 7.68

Ask: What pIC50 appears in the records for this compound with Human Recombinant Gelatinase A (MMP-2) (Homo sapiens, UniProt P08253)? O=C(O)CCC#Cc1ccc(-c2ccc(C(=O)CC(CCCc3ccccc3)C(=O)O)cc2)cc1 (centres unmarked)
Reply: 6.97

Ask: What pIC50 appears in the records for this compound with Human Recombinant Gelatinase A (MMP-2) (Homo sapiens, UniProt P08253)? O=C(CC(CCCc1ccccc1)C(=O)O)c1ccc(-c2ccc(C#CCCCCO)cc2)cc1 (centres unmarked)
Reply: 7.44

Ask: What pIC50 appears in the records for this compound with Human Recombinant Gelatinase A (MMP-2) (Homo sapiens, UniProt P08253)? O=C(CC(CCCc1ccccc1)C(=O)O)c1ccc(-c2ccc(C#Cc3ccccc3)cc2)cc1 (centres unmarked)
Reply: 6.61

Ask: What pIC50 appears in the records for this compound with Human Recombinant Gelatinase A (MMP-2) (Homo sapiens, UniProt P08253)? O=C(CC(CCCc1ccccc1)C(=O)O)c1ccc(-c2ccc(C#CCO)cc2)cc1 (racemic)
Reply: 8.40

Ask: What pIC50 appears in the records for this compound with Human Recombinant Gelatinase A (MMP-2) (Homo sapiens, UniProt P08253)? O=C(C[C@H](CCCc1ccccc1)C(=O)O)c1ccc(-c2ccc(C#CCO)cc2)cc1
Reply: 6.60
